Listed here are molecules together with their documented TGI.
- Test system: HCT-116 colon
- PROTOCOL_DESCRIPTION: NCI tumour cell line growth inhibition, 48 h
The figure you give is taken to be in µM; do not add the unit.

Below, 5 molecules whose answers are already recorded.
molecule=COc1cccc(-c2cc(=O)c3cc(Cl)cnc3[nH]2)c1 reported_property=TGI result_unit=µM numeric_readout=10.6
molecule=CC1(C)[C@@H](OC(N)=O)C=C[C@]2(C=O)[C@H]3CC[C@]4(C)[C@@H](c5ccc(=O)oc5)[C@@H](Cl)C[C@]4(O)C3=CC[C@@H]12 reported_property=TGI result_unit=µM numeric_readout=0.00818
molecule=CN(C)CCNc1nc2ccccc2c2c(=O)c3ccccc3sc12 reported_property=TGI result_unit=µM numeric_readout=2.79
molecule=CN(C)CCNc1nc2c(no[n+]2[O-])c2ccccc12 reported_property=TGI result_unit=µM numeric_readout=52.9
molecule=O=C(Nc1ccc(I)cc1F)c1cc(I)ccc1O reported_property=TGI result_unit=µM numeric_readout=3.35

TGI on HCT-116 colon for COc1c(N2CCN(Cn3c(O)c(N=NC(=O)c4ccncc4)c4cc(F)ccc43)C(C)C2)c(F)cc2c(=O)c(C(=O)O)cn(C3CC3)c12 (stereo not given) is 15

The molecule CC1(C)c2ccccc2C(O)C12CCC(=O)CC2 (stereo not given) on HCT-116 colon: TGI was 23.2

Test item CN1CCN(CCOc2ccc(-c3cnc4c(-c5ccc(F)cc5)cnn4c3)cc2)CC1 ; HCT-116 colon; reported TGI was 3.05

* * *

- Test system: MCF7 breast
- PROTOCOL_DESCRIPTION: NCI tumour cell line growth inhibition, 48 h
Would you mind labelling by TGI? At or over 9 µM is satisfied, under is not satisfied.

compound=C[N+](C)(N)c1nc(N)c(C#N)c(C#N)c1C#N class_assignment=satisfied

Query string: Answer whether TGI of O=C(CCl)Nc1cc(O)c2c(c1)C(=O)c1cccc(O)c1C2=O is greater than or equal to 9 µM.
Result string: not satisfied

Query string: Decide: TGI of CN1CCN(CCOc2ccc(-c3cnc4c(-c5ccc(F)cc5)cnn4c3)cc2)CC1 >= 9 µM?
Result string: not satisfied

* * *

- Tested on: UACC-257 melanoma
- PROTOCOL_DESCRIPTION: NCI tumour cell line growth inhibition, 48 h
TGI listing for selected compounds.

Consider the reported TGI for these compounds:
compound=ClCC#CCSc1ncnc2c1ncn2CC#CCCl result="3.49 µM"
compound=CCN1CCNc2c3cc(OC)ccc3nc3c([N+](=O)[O-])ccc1c23 result="3.7 µM"
compound=CC(=O)CC(=O)/C=C/c1cccs1 result="> 100 µM"
compound=Cc1nnc(-c2ccc(-c3nc4ccccc4o3)cc2)o1 result="90.7 µM"
compound=COc1ccc(C[C@@H]2OC3(C=CC(=O)C=C3)O[C@H]2Cc2ccc(OC)cc2)cc1 result="3.28 µM"
compound=COc1ccc(-c2c(N)n[nH]c2-c2cc(OC)c(OC)c(OC)c2)cc1 result="> 100 µM"
compound=COc1ccc2nc3cccc(C(=O)NCCN(C)C)c3nc2c1 result="7.74 µM"
compound="OC(CN1CCCCC1)c1ccc(/C=C/c2ccc(Cl)cc2)cc1 (centres undefined)" result="46.7 µM"
compound=NCP(=O)(O)OCC(=O)O result="> 100 µM"
compound=O=C1c2cc([N+](=O)[O-])sc2C(=O)c2ccsc21 result="0.641 µM"

Item: COc1cc(/C=N\O)nc(-c2ccccn2)c1 | System: UACC-257 melanoma | TGI: > 100 µM

Lab entry: UACC-257 melanoma assay, compound Brc1cccc[n+]1-c1ccc2cc(-[n+]3ccccc3Br)ccc2c1 , TGI = > 100 µM

Field TGI (UACC-257 melanoma), entry O=C(O)CC(O)(C(=O)O)C(O)C(=O)O (centres undefined) : > 1000 µM

Lab entry: UACC-257 melanoma assay, compound CCOP(=O)(OCC)C(C)(C)OC(=O)NC#N , TGI = > 100 µM

UACC-257 melanoma assay, compound CC1=CC(=O)/C(=C/n2c(=S)[nH]c3ccccc32)C(=O)O1 , recorded TGI = > 100 µM

The compound COC(=O)C(Cc1nc2ccccc2[nH]c1=O)C(=O)C(=O)Nc1cc(C(F)(F)F)ccc1Cl (centres undefined) , tested on UACC-257 melanoma, showed TGI of > 100 µM

Reported UACC-257 melanoma TGI for item O=C(/C(=C/c1ccccc1)c1ccccc1)N1c2ccccc2CC1c1c[nH]c2ccccc12 (centres undefined) was > 100 µM

The reported TGI value, UACC-257 melanoma, for CCCC1(N)CC(OC)OC(C)C1O (centres undefined) reads > 100 µM

The observed TGI for Cc1cc(O)c(C(C)C)cc1N=Cc1ccccc1O when tested with UACC-257 melanoma stands at 24.4 µM

Observed TGI, UACC-257 melanoma, O=C(Nc1cccc(C(F)(F)F)c1)c1cc(Br)cc(Br)c1O : 6.93 µM

# O=C1C[C@H](c2ccc(O)c(O)c2)Oc2cc(O)cc(O)c21 with UACC-257 melanoma: TGI is > 100 µM

Bench note, UACC-257 melanoma: entry CC1(C)C2CCC(N)(C2)C1O (centres undefined) , its TGI = > 100 µM

TGI for UACC-257 melanoma with input Cc1ccc2c(c1)C(=O)c1c-2n(CCCN=[N+]=[N-])c(=O)c2cc([N+](=O)[O-])ccc12 equals > 100 µM

Field TGI (system: UACC-257 melanoma) for entry Cc1ccc(NC(=O)CCC(=O)C(C#N)c2ccccc2)cc1C (centres undefined) = > 100 µM
